Please go through the items and note down their normalized growth.
# TEST: chemical genetic growth profiling, strain panel (AID 1159580);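 further: tested at 20 µM; growth read once vehicle control cultures reached saturation at 30 °C; 1 = growth at the plate median or of vehicle wells; lower values mean less growth of the strain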
# SETTINGS: S. cerevisiae deletion strains, growth OD, locus YLR133W, strain CKI1, hits give low values
Out of some 5,500 compounds screened, about 2,000 (36%) were called active. Roughly 18% stayed inconclusive and do not appear here. The list shows a part of the results.

The molecule O=C(Nc1cccnc1)c1cc2c(s1)-c1ccccc1CC2 showed normalized growth equal to 0.808 (inactive)

The molecule O=C(c1cc2c(s1)-c1ccccc1CC2)N1CCN(Cc2ccccc2)CC1 showed normalized growth equal to 0.971 (inactive)

The molecule C/C(=N/NC(=O)c1ccc(C(C)(C)C)cc1)c1ccccc1O showed normalized growth equal to 0.988 (inactive)

The molecule CC(C)(C)C(=O)c1sc2sc(C(=O)C(C)(C)C)c(N)c2c1N showed normalized growth equal to 0.888 (inactive)
